The entries below come with measured MIC values attached.
tested on: Streptococcus pneumoniae; assay: Minimum inhibitory concentration (MIC) by agar dilution; assay type: cell-based; conditions: in vitro, agar dilution (NCCLS 1993), Streptococcus pneumoniae strain SPNE 9912; read-out: Antibacterial Activity Minimum Inhibitory Concentration SPNE 9912
Express it in µg/mL; write the number only.

[[record]]
structure_smiles_string = "CC(=O)NC[C@H]1CN(c2ccc3c(c2)CCN(C(=O)COC(C)=O)C3)C(=O)O1"
experimental_system = "Streptococcus pneumoniae"
units = "µg/mL"
result_value = 1


Item under review: CC(=S)NC[C@H]1CN(c2ccc3c(c2)CCS(=O)(=O)C3)C(=O)O1 . Reported MIC?
1

Can you share its MIC? I mean this molecule: CC(=O)NC[C@H]1CN(c2ccc3c(c2)CCN(C(=O)Cc2ccc(I)cc2)CC3)C(=O)O1
1

Could you share which MIC value was measured for CC(=O)NC[C@H]1CN(c2ccc3c(c2)CCN(C(=O)c2ccccc2)CC3)C(=O)O1 ?
1

Could you tell me which MIC is on file for CSc1nnc(N2CCc3ccc(N4C[C@H](CNC(C)=O)OC4=O)cc3CC2)s1 ?
0.5

Bench note: what MIC did COC(=O)N1CCc2ccc(N3C[C@H](CNC(C)=O)OC3=O)cc2CC1 show?
1

====

test system: Streptococcus pneumoniae; test: Minimum inhibitory concentration (MIC) by agar dilution; format: cell-based; conditions: in vitro, agar dilution (NCCLS 1993), Streptococcus pneumoniae strain SPNE 9912; read-out: Antibacterial Activity Minimum Inhibitory Concentration SPNE 9912
I'd appreciate it if you marked entries t when MIC is lower than 1 µg/mL and f when it is not.

[[record]]
structure_smiles_string = "CC(=S)NC[C@H]1CN(c2ccc3c(c2)CCN(C(=O)CO)CC3)C(=O)O1"
qualitative_label = "t"

[[record]]
structure_smiles_string = "CC(=O)NC[C@H]1CN(c2ccc3c(c2)CCN(C=O)CC3)C(=O)O1"
qualitative_label = "t"

[[record]]
structure_smiles_string = "CC(=O)NC[C@H]1CN(c2ccc3c(c2)CCCCN3C=O)C(=O)O1"
qualitative_label = "t"


Please let me know if CC(=S)NC[C@H]1CN(c2ccc3c(c2)CCSC3)C(=O)O1 shows MIC below 1 µg/mL.
t

Quick check: MIC of CC(=O)NC[C@H]1CN(c2ccc3c(c2)CCN(C(=O)Cc2cccc(C(F)(F)F)c2)CC3)C(=O)O1 under 1 µg/mL?
f

Strictly below 1 µg/mL: is that where MIC of CC(=O)NC[C@H]1CN(c2ccc3c(c2)CCN(c2nnc(N)s2)CC3)C(=O)O1 sits?
t

MIC strictly < 1 µg/mL for this compound? CC(=O)NC[C@H]1CN(c2ccc3c(c2)CCOC3)C(=O)O1
f

Input CC(=O)CCC(=O)N1CCc2ccc(N3C[C@H](CNC(C)=O)OC3=O)cc2CC1 ; condition: MIC strictly below 1 µg/mL. Does it hold?
f

Hello, is MIC of the following compound strictly smaller than 1 µg/mL? CC(=O)NC[C@H]1CN(c2ccc3c(c2)CCSCC3)C(=O)O1
f

Consider CC(=O)NC[C@H]1CN(c2ccc3c(c2)CCN(C(=O)OCc2ccccc2)CC3)C(=O)O1 . Does its MIC lie strictly below 1 µg/mL?
t

Please indicate whether the reported MIC of CC(=O)NC[C@H]1CN(c2ccc3c(c2)CCN(C(=O)CO)CC3)C(=O)O1 is strictly below 1 µg/mL.
t

In plain terms, does CC(=O)NC[C@H]1CN(c2ccc3c(c2)CCN(C(=O)Cc2ccc(C(F)(F)F)cc2)CC3)C(=O)O1 come in under 1 µg/mL for MIC?
f

Would you kindly verify if MIC of CC(=S)NC[C@H]1CN(c2ccc3c(c2)CSCC3)C(=O)O1 is strictly less than 1 µg/mL?
t
